# Test system: P. falciparum Dd2
# Measurement Notes: SYBR green I asexual blood stage proliferation assay (96 h)
# Type: cell-based, Plasmodium falciparum
# Assay Setup: Plasmodium falciparum, DD2; Sybr Green I, 11-pt dose response, 96hr; read-out: CDD P. falciparum Sybr Green I ABS 11-pt Reconfirmation Dose Response (96hr): Maximum inhibition (%)
Binning rule for recorded Emax: low-valued = under 80%, mid-valued = from 80% up to 90%, high-valued = 90% and over

[in] Any idea which band NC(=O)CN1CCC(Nc2ccnc3ccc(Cl)cc23)CC1 is in?
[out] high-valued

[in] Any idea which band CN1CCC2(CCCN(c3nccc(C(F)(F)F)n3)C2)CC1 is in?
[out] low-valued

[in] Any idea which band Clc1ccc(C2(CNC3=NCCN3)CC2)cc1 is in?
[out] high-valued

[in] Any idea which band Cc1ccnc(NC(=O)c2[nH]nc(C(C)C)c2Br)c1 is in?
[out] low-valued

[in] Any idea which band Cn1ccnc1CN(Cc1ccccn1)Cc1ccccc1Cl is in?
[out] mid-valued

[in] Any idea which band CN(Cc1cc(Cl)cc2cccnc12)CC1CCN(CCO)CC1 is in?
[out] high-valued

[in] Any idea which band CN1CCC(N(C)c2ccccc2CNCc2ccco2)CC1 is in?
[out] high-valued

[in] Any idea which band CN[C@@H](C)C(=O)N(Cc1cccc(C)c1)Cc1ccccc1OC is in?
[out] low-valued

[in] Any idea which band CC(C)C(CNCc1cccc2c1OCO2)N1CCOCC1 (centres unmarked) is in?
[out] low-valued

[in] Any idea which band Fc1ccccc1C1(CNC2CCOC3(CCOCC3)C2)CCCC1 (centres unmarked) is in?
[out] low-valued

[in] Any idea which band NC(=O)c1cccc2nc([C@H]3CCN(Cc4ccccn4)C3)[nH]c12 is in?
[out] mid-valued

[in] Any idea which band Cc1cccnc1CN1CC[C@H](Oc2cccc(F)c2)[C@@](C)(O)C1 is in?
[out] mid-valued

[in] Any idea which band Oc1ccc(Cl)cc1CNCc1ccccc1Cl is in?
[out] low-valued

[in] Any idea which band Cc1cccc(CNC(CN2CCN(C)CC2)c2ccccc2)c1 (centres unmarked) is in?
[out] high-valued

---

Answer each item with its documented IC50.
# Measured Target: recombinant firefly luciferase (Photinus pyralis, UniProt P08659)
# Sequence (P08659 whole entry): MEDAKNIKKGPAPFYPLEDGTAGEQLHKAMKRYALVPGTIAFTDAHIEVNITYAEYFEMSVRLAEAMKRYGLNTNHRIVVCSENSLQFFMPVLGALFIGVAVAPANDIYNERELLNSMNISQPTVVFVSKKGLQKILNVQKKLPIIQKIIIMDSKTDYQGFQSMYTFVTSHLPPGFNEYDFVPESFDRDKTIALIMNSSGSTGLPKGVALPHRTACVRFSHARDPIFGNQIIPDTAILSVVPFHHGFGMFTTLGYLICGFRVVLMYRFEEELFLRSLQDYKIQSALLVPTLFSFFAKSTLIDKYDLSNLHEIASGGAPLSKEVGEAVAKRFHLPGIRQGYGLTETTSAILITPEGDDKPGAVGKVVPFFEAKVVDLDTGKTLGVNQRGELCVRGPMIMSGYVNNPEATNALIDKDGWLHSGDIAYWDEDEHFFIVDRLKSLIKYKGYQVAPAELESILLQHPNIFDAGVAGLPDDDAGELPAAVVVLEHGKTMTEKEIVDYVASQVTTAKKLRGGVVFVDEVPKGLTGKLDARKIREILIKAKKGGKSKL
# Measurement Notes: biochemical
# Assay Setup: dose response; read-out: rLuc inhibition dose response: IC50

[in] Endpoint output: IC50 of CNC(=O)CCC(=O)N1CCOC(c2ccc3cc(OC)ccc3c2)C1 (stereo not drawn) . Value?
[out] 23.5 µM

[in] Endpoint output: IC50 of O=C(CN1CCCC(c2ccn[nH]2)C1)Nc1nc2c(s1)CCCC2 (stereo not drawn) . Value?
[out] > 25 µM

[in] Endpoint output: IC50 of Cc1cccc(Nc2cc(C3CCCN(CC(N)=O)C3)ccn2)n1 (stereo not drawn) . Value?
[out] > 8.33 µM

[in] Endpoint output: IC50 of COC(=O)c1sc(NCc2ccc(N3CCC(O)CC3)c(F)c2)nc1Cl . Value?
[out] > 25 µM

[in] Endpoint output: IC50 of Cc1noc(NC(=O)c2ccc(OC(F)(F)F)cc2)n1 . Value?
[out] > 25 µM

[in] Endpoint output: IC50 of COc1cccc(-c2noc3c2CN(c2ncnc4c2CCC4)CC3)c1 . Value?
[out] > 25 µM

[in] Endpoint output: IC50 of Cc1ccc(N(CC(=O)c2ccc(Br)cc2)C2=NCCCCC2)cc1 . Value?
[out] > 25 µM

[in] Endpoint output: IC50 of CCNc1ccnc(CN2CCCC2C(=O)Nc2nccs2)c1 (stereo not drawn) . Value?
[out] > 25 µM

[in] Endpoint output: IC50 of COc1ccc2cc(C3CN(C(=O)N(C)C)CCO3)ccc2c1 (stereo not drawn) . Value?
[out] 3.45 µM
